Source of measurements: ChEMBL document CHEMBL6096721

# METHOD_SUMMARY: MRT (0 to t) in male ICR mouse at 2 mg/kg, iv measured after 24 hrs by LC-MS/MS analysis
# Assay type: ADME, organism-based
# SETUP_CONDITIONS: in vivo
PROPERTY_NAME: MRT last at 24 h (min)

COc1cc(C(F)(F)F)ccc1C[Se]c1cccc(N2C=NN(Cc3nc4c(F)cc(C(=O)O)cc4n3C[C@@H]3CCO3)CC2)n1	23.4
COc1cc(C#N)ccc1C[Se]c1cccc(N2C=NN(Cc3nc4c(F)cc(C(=O)O)cc4n3C[C@@H]3CCO3)CC2)n1	24
COc1cc(C#N)ccc1C[Se]c1cccc(C2CCN(Cc3nc4ccc(C(=O)O)cc4n3C[C@@H]3CCO3)CC2)n1	46.2

====

# METHOD_SUMMARY: Protein binding in mouse plasma at 2 uM assessed as unbound fraction
# Format: ADME, cell-free
PROPERTY_NAME: fraction unbound at 2 µM

COc1cc(C#N)ccc1C[Se]c1cccc(C2CCN(Cc3nc4ccc(C(=O)O)cc4n3C[C@@H]3CCO3)CC2)n1	0.02

====

# METHOD_SUMMARY: Oral bioavailability in male ICR mouse at 10 mg/kg measured after 24 hrs by LC-MS/MS analysis
# Format: ADME, organism-based
# SETUP_CONDITIONS: in vivo
Overview of reported bioavailability across a group of compounds:
PROPERTY_NAME: bioavailability (%)

COc1cc(C(F)(F)F)ccc1C[Se]c1cccc(N2C=NN(Cc3nc4c(F)cc(C(=O)O)cc4n3C[C@@H]3CCO3)CC2)n1	3.2
COc1cc(C#N)ccc1C[Se]c1cccc(N2C=NN(Cc3nc4c(F)cc(C(=O)O)cc4n3C[C@@H]3CCO3)CC2)n1	3.38
COc1cc(C#N)ccc1C[Se]c1cccc(C2CCN(Cc3nc4ccc(C(=O)O)cc4n3C[C@@H]3CCO3)CC2)n1	20.4

====

Overview of reported MRT last at 24 h across a group of molecules:
# METHOD_SUMMARY: MRT (0 to t) in male ICR mouse at 10 mg/kg, po measured after 24 hrs by LC-MS/MS analysis
# Type: ADME, organism-based
# SETUP_CONDITIONS: in vivo
PROPERTY_NAME: MRT last at 24 h (h)

COc1cc(C#N)ccc1C[Se]c1cccc(C2CCN(Cc3nc4ccc(C(=O)O)cc4n3C[C@@H]3CCO3)CC2)n1	1.91
COc1cc(C(F)(F)F)ccc1C[Se]c1cccc(N2C=NN(Cc3nc4c(F)cc(C(=O)O)cc4n3C[C@@H]3CCO3)CC2)n1	3.21
COc1cc(C#N)ccc1C[Se]c1cccc(N2C=NN(Cc3nc4c(F)cc(C(=O)O)cc4n3C[C@@H]3CCO3)CC2)n1	2.88

====

Overview of reported AUC(0-t) at 24 h across a group of compounds:
# METHOD_SUMMARY: AUC (0 to t) in male ICR mouse at 2 mg/kg, iv measured after 24 hrs by LC-MS/MS analysis
# Assay type: ADME, organism-based
# SETUP_CONDITIONS: in vivo
PROPERTY_NAME: AUC(0-t) at 24 h (ng·h/mL)

COc1cc(C#N)ccc1C[Se]c1cccc(C2CCN(Cc3nc4ccc(C(=O)O)cc4n3C[C@@H]3CCO3)CC2)n1	5460
COc1cc(C(F)(F)F)ccc1C[Se]c1cccc(N2C=NN(Cc3nc4c(F)cc(C(=O)O)cc4n3C[C@@H]3CCO3)CC2)n1	3720
COc1cc(C#N)ccc1C[Se]c1cccc(N2C=NN(Cc3nc4c(F)cc(C(=O)O)cc4n3C[C@@H]3CCO3)CC2)n1	3260
